test.target: human GLP-1 receptor (Homo sapiens, UniProt P43220)
Sequence (P43220 24-463): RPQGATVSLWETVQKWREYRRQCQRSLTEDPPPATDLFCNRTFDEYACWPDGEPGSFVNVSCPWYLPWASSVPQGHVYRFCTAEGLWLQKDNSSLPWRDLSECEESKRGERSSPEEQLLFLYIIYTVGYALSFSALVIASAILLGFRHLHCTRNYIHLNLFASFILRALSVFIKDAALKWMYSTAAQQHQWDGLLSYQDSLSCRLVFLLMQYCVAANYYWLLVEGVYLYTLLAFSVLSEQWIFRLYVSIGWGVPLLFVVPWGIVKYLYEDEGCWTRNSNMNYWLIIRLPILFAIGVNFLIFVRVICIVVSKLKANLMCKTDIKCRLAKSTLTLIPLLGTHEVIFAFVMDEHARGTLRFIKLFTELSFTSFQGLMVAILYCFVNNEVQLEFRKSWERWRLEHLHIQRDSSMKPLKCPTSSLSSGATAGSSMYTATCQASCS
test.name: GLP-1R cAMP assay (HitHunter cAMP accumulation)
test.parameters: CHO cells stably overexpressing human GLP-1 receptor, 30 min, 20-point dose response in triplicate
pEC50: −log10 of the molar value.
pEC50 overview

Reference set, count: 3
compound	pEC50
O=C(O)c1ccc2nc(CN3CCC(Nc4ccnc(COc5ccc(Cl)cc5F)n4)CC3)n(C[C@@H]3CCO3)c2c1	> 7.30
CCn1cncc1Cn1c(CN2CCC([C@H](F)c3cccc(COc4ccc(Cl)cc4C#N)c3)CC2)nc2ccc(C(=O)O)cc21 (single isomer, unassigned)	> 7.30
O=C(O)c1ccc2nc(CN3CCC(Oc4cccc(COc5ccc(F)cc5Cl)c4)CC3)n(C[C@@H]3CCO3)c2c1	> 7.30

Look at this compound and give its reported pEC50. CCn1cncc1Cn1c(CN2CCC([C@@H](F)c3cccc(COc4ccc(Cl)cc4C#N)c3)CC2)nc2ccc(C(=O)O)cc21 (single isomer, unassigned)
> 7.30

Look at this compound and give its reported pEC50. CN(c1ccnc(COc2ccc(Cl)cc2F)n1)C1CCN(Cc2nc3ccc(C(=O)O)cc3n2C[C@@H]2CCO2)CC1
> 7.30

Look at this compound and give its reported pEC50. N#Cc1ccc(OCc2nccc(OC3C[C@H]4CC[C@@H](C3)N4Cc3nc4ccc(C(=O)O)cc4n3C[C@@H]3CCO3)n2)c(F)c1 (single isomer, unassigned)
6.30 to 7.30
